Sourced from patent US20030157182A1

# d(0.5) annotations
ASSAY_OVERVIEW: Particle size distribution by volume, Malvern Mastersizer 2000
Assay type: physicochemical
CONDITION_NOTES: volume median diameter; μm

Examples with their reported d(0.5) follow.
> print(dat)
                                   compound  metric  obs.value
1  CC(=O)Nc1ccc(O)cc1 [Paracetamol Milled Sigma, Paracetamol]  d(0.5)      12 µm
2  CC(=O)Nc1ccc(O)cc1 [Paracetamol from Example 1, Paracetamol]  d(0.5)      21 µm

Switching to the query record.
Query string: Consider the compound CC(=O)Nc1ccc(O)cc1 [Sigma Paracetamol, Paracetamol] and give its measured d(0.5).
Result string: 19 µm
